System: NOD1
Assay: Tri-DAP-stimulated IL-8 release in HCT116 cells (endogenous NOD1)
Format: cell-based, human
Conditions: Homo sapiens, HCT-116; IL-8 end-point; 25 μg/mL Tri-DAP
Exercise: state measured IC50 for each of the compounds provided.

Consider the compound CC(C)c1ccc(NC(=O)Cn2c(CCNC(=O)c3ccccc3)nc3ccccc32)cc1 [Compound 2] and give its measured IC50.
> 50 µM

Any idea what IC50 was measured for O=C(Cn1c(CCNC(=O)c2ccccc2)nc2ccccc21)Nc1ccc2c(c1)CCC2 [Compound 1] ?
> 50 µM

Numbers sourced from paper PMC3731320.
